Hello, the source for this data is patent US12655123B2, in case you need it.

Assay: Solubility in bio-relevant media (FaSSIF, FeSSIF, SGF)
Assay type: physicochemical
Conditions: Simulated Gastric Fluid (SGF), simulated gastric fluid, thermodynamic from solid; SGF, 24 h
Excerpt: High Performance Liquid Chromatography (HPLC): a representative HPLC method is shown below, which can be used, for example, to analyze the purity, solubility, and stability of Compound 1 herein.
assay_endpoint: solubility at 24 h (µg/mL)

molecule="[2H]C([2H])([2H])NC(=O)c1nnc(NC(=O)C2CC2)cc1Nc1ncc(Cl)cc1S(C)(=O)=O [Form III]" assay_endpoint="solubility at 24 h" scale_unit=µg/mL number=5.7

---

Assay: Solubility in bio-relevant media (FaSSIF, FeSSIF, SGF)
Format: physicochemical
Conditions: thermodynamic from solid; FaSSIF, 2 h
Text: High Performance Liquid Chromatography (HPLC): a representative HPLC method is shown below, which can be used, for example, to analyze the purity, solubility, and stability of Compound 1 herein.
assay_endpoint: solubility at 2 h (µg/mL)

compound="[2H]C([2H])([2H])NC(=O)c1nnc(NC(=O)C2CC2)cc1Nc1ncc(Cl)cc1S(C)(=O)=O [Form III]" assay_endpoint="solubility at 2 h" scale_unit=µg/mL number=1.1
